Where do these numbers come from? They come from patent US20190071490A1.

study system: T1, rat α-CGRP (Rattus norvegicus, UniProt P01256)
T1 construct: rat α (1-37); purchased GenScript Corporation or Global Peptide Services
T1 sequence (P01256 83-119 limits assumed): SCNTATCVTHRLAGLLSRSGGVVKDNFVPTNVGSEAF
assay remarks: Biacore SPR affinity of Fab fragments to N-biotinylated rat α-CGRP on SA chip
Type: binding
assay conditions: 37° C., screening mode except underlined values
assay metric: α-rat koff
The answer should read as a number with its unit following.

{"columns": ["molecule", "α-rat koff"],
 "data": [
  ["M34: G1 variant; L1 R28N T30G; H2 E54K A57N S58T; HC-FW3 L99T A100V (antibody, V domains shown) VH: EVQLVESGGGLVQPGGSLRLSCAASGFTFSNYWISWVRQAPGKGLEWVAEIRSKSDNTATHYAEAVKGRFTISRDNAKNSLYLQMNSLRAEDTAVYYCTVYFDYGLAIQNYWGQGTLVTVSS VL: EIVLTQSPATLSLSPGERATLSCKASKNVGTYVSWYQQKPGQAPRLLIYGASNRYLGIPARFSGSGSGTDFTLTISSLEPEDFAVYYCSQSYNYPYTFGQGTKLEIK", "0.00217 s⁻¹"]
]}

Please find the next molecule below.
α-rat koff measured on M21: G1 variant; L1 R28W; HC-FW3 L99S (antibody, V domains shown) VH: EVQLVESGGGLVQPGGSLRLSCAASGFTFSNYWISWVRQAPGKGLEWVAEIRSESDASATHYAEAVKGRFTISRDNAKNSLYLQMNSLRAEDTAVYYCSAYFDYGLAIQNYWGQGTLVTVSS VL: EIVLTQSPATLSLSPGERATLSCKASKWVTTYVSWYQQKPGQAPRLLIYGASNRYLGIPARFSGSGSGTDFTLTISSLEPEDFAVYYCSQSYNYPYTFGQGTKLEIK = 0.000695 s⁻¹
